Target: ERK5 (Homo sapiens)
Construct: screened for activity against several kinases in Jurkat cells; endogenous in cells; host or cells: Jurkat cell lysate
Experiment: Probe-based (AX9989 acyl phosphate ATP probe) kinase profiling in Jurkat lysate: ERK5
Type: binding
Conditions: screening concentration 1.0 μM; read-out: Kinase inhibition % at indicated screening concentration: ERK5
What inhibition at 1 µM was measured for each of the following?

Entry CN(C)CCn1cc(Nc2cc3c(cn2)N(C)C(=O)c2ccccc2N3C)cn1 ; assay system ERK5 (Homo sapiens); inhibition at 1 µM recorded at 75 to 90%

Here COc1ccc(C(=O)O)cc1Nc1cc2c(cn1)N(C)C(=O)c1ccccc1N2C was tested on ERK5 (Homo sapiens), and its inhibition at 1 µM came to 35 to 50%

Measured inhibition at 1 µM (ERK5 (Homo sapiens)), entry CCOc1cc(C(=O)NCCCN(CC)CC)ccc1Nc1cc2c(cn1)N(C)C(=O)c1ccccc1N2C : 75 to 90%

Test item Cc1nn(C)cc1Nc1cc2c(cn1)N(C)C(=O)c1ccccc1N2C ; ERK5 (Homo sapiens); reported inhibition at 1 µM was 75 to 90%

Short answer on ERK5 (Homo sapiens) for CCOc1cc(C(=O)NC(CO)CO)ccc1Nc1cc2c(cn1)N(C)C(=O)c1ccccc1N2C , inhibition at 1 µM: 50 to 75%

Log: ERK5 (Homo sapiens), molecule CCOc1cc(C(=O)N(CC)CCN(CC)CC)ccc1Nc1cc2c(cn1)N(C)C(=O)c1ccccc1N2C , inhibition at 1 µM = > 90%

Readout inhibition at 1 µM for CCOc1cc(C(=O)O)ccc1Nc1cc2c(cn1)N(C)C(=O)c1ccccc1N2C , test system ERK5 (Homo sapiens), was 50 to 75%

----------
Target: ERK5 (Homo sapiens, UniProt Q13164)
Construct: screened for activity against several kinases in Jurkat cells; endogenous in cells; host or cells: Jurkat cell lysate
Sequence (Q13164 whole entry): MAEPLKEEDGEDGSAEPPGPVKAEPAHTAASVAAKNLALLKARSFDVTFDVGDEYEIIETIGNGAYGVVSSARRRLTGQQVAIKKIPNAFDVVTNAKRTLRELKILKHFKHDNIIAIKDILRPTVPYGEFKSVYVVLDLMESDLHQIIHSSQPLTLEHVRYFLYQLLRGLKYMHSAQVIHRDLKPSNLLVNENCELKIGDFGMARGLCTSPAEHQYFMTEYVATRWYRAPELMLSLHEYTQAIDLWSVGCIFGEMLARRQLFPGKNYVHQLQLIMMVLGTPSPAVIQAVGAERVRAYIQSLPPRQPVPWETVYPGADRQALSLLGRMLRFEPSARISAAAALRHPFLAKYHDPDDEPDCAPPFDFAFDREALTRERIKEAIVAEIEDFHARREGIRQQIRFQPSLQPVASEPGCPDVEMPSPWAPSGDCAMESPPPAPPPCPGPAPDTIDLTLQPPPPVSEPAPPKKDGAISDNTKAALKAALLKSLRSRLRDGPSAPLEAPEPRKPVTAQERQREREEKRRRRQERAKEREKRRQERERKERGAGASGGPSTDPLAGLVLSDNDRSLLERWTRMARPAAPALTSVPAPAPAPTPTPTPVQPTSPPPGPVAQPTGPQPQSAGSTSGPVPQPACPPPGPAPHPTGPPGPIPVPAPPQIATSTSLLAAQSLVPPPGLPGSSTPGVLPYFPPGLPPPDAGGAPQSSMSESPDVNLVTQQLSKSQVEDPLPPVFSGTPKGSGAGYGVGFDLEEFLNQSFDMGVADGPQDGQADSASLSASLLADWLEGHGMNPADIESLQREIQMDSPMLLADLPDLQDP
Assay: Probe-based (AX9989 acyl phosphate ATP probe) kinase profiling in Jurkat lysate: ERK5
Type: binding
Settings: screening concentration 1.0 μM; read-out: Kinase inhibition % at indicated screening concentration: ERK5
Give measured inhibition at 1 µM for each item. Keep answers brief.

The compound listed as CN1C(=O)c2ccccc2N(C)c2cc(NC3CCC(C(=O)NC4CCOCC4)CC3)ncc21 (centres unmarked) shows inhibition at 1 µM equal to 75 to 90%

Entry CCOc1cc(C(=O)N2CCC(O)CC2)ccc1Nc1cc2c(cn1)N(C)C(=O)c1ccccc1N2C , inhibition at 1 µM reported as > 90%

// recorded inhibition at 1 µM for COc1ccc(Nc2cc3c(cn2)N(C)C(=O)c2ccccc2N3C)c(C)c1 : 75 to 90%

Value of inhibition at 1 µM reported for the compound CCOc1cc(C(=O)NCCOCCO)ccc1Nc1cc2c(cn1)N(C)C(=O)c1ccccc1N2C is 75 to 90%

// inhibition at 1 µM lookup, compound = CCOc1cc(C(=O)N2CCNCC2)ccc1Nc1cc2c(cn1)N(C)C(=O)c1ccccc1N2C , result: > 90%
